In this section, each of the compounds is paired with its reported foliar effect.
tested on: KCHSC; assay: Greenhouse test, post-emergence (PO) application, foliar effect; format: in vivo, Kochia scoparia; details: KCHSC sensitive, (A) 50, (B) 20, mixture 50 + 20 g of AS/ha, 3 weeks after application
I only need the number, in %, no unit after it.

Solved cases (3 shown):
[[record]]
compound = "COC(=O)c1csc(C)c1S(=O)(=O)NC(=O)n1nc(OC)n(C)c1=O [(B5), thiencarbazone-methyl]"
quantitative_result = 90

[[record]]
compound = "CCS(=O)(=O)c1cccnc1S(=O)(=O)NC(=O)Nc1nc(OC)cc(OC)n1 [(B3), rimsulfuron]"
quantitative_result = 90

[[record]]
compound = "COc1cc(OC)nc(NC(=O)NS(=O)(=O)c2ncccc2C(F)(F)F)n1 [(B1), flazasulfuron]"
quantitative_result = 90


# get_value(readout='foliar effect', item= Cc1ccc2c(c1)[C@H](Nc1nc(N)nc(C(C)F)n1)[C@@H](C)C2 (stereo partly drawn) [(A), indaziflam] )
30

Could you do the same for COc1cc(OC)nc(NC(=O)NS(=O)(=O)c2cc(NC=O)ccc2C(=O)N(C)C)n1 [(B2), foramsulfuron] , please?
90

Could you do the same for CCOC(=O)c1ccccc1S(=O)(=O)NC(=O)Nc1nc(Cl)cc(OC)n1 [(B4), chlorimuron-ethyl] , please?
90

---

In this section, each of the compounds is paired with its reported foliar effect.
tested on: ALOMY; experiment: Greenhouse test, post-emergence (PO) application, foliar effect; format: in vivo, Alopecurus myosuroides; settings: ALOMY sensitive, (A) 50, (B) 20, mixture 50 + 20 g of AS/ha, 3 weeks after application
I only need the number, in %, no unit after it.

Solved cases (5 shown):
[[record]]
compound = "COC(=O)c1csc(C)c1S(=O)(=O)NC(=O)n1nc(OC)n(C)c1=O [(B5), thiencarbazone-methyl]"
endpoint = "foliar effect"
quantitative_result = 100

[[record]]
compound = "CCS(=O)(=O)c1cccnc1S(=O)(=O)NC(=O)Nc1nc(OC)cc(OC)n1 [(B3), rimsulfuron]"
endpoint = "foliar effect"
quantitative_result = 100

[[record]]
compound = "COc1cc(OC)nc(NC(=O)NS(=O)(=O)c2ncccc2C(F)(F)F)n1 [(B1), flazasulfuron]"
endpoint = "foliar effect"
quantitative_result = 100

[[record]]
compound = "CCOC(=O)c1ccccc1S(=O)(=O)NC(=O)Nc1nc(Cl)cc(OC)n1 [(B4), chlorimuron-ethyl]"
endpoint = "foliar effect"
quantitative_result = 100

[[record]]
compound = "COc1cc(OC)nc(NC(=O)NS(=O)(=O)c2cc(NC=O)ccc2C(=O)N(C)C)n1 [(B2), foramsulfuron]"
endpoint = "foliar effect"
quantitative_result = 100


Could you now consider this next compound?
Under ALOMY: foliar effect value of Cc1ccc2c(c1)[C@H](Nc1nc(N)nc(C(C)F)n1)[C@@H](C)C2 (stereo partly drawn) [(A), indaziflam] ?
75

---

In this section, each of the compounds is paired with its reported foliar effect.
system: BRODI; test: Greenhouse test, post-emergence (PO) application, foliar effect; format: in vivo, Bromus diformis; settings: BRODI resistant - group A (TSR), B (NTR) and G (NTR), (A) 50, (B) 20, mixture 50 + 20 g of AS/ha, 3 weeks after application
I only need the number, in %, no unit after it.

Solved cases (2 shown):
[[record]]
compound = "Cc1ccc2c(c1)[C@H](Nc1nc(N)nc(C(C)F)n1)[C@@H](C)C2 (stereo partly drawn)"
test_system = "BRODI"
quantitative_result = 65

[[record]]
compound = "COc1cc(OC)nc(NC(=O)NS(=O)(=O)c2cc(NC=O)ccc2C(=O)N(C)C)n1"
test_system = "BRODI"
quantitative_result = 75


# get_value(readout='foliar effect', item= `CCS(=O)(=O)c1cccnc1S(=O)(=O)NC(=O)Nc1nc(OC)cc(OC)n1` )
75
